# Assay Procedure: Brightening rate and brightening kinetics in the polymer Transhade-150
# Type: physicochemical
# Assay Setup: Table 3: R1 = OCH3, R2 = R3 = H, within 10 min at 23° C.
Endpoint Label: Δ(10 min, 23° C.) relative brightening (%)

CCC1(O)c2ccccc2-c2c1c1c(c3cc(OC)ccc23)OC(c2ccccc2)(c2ccc(OC)cc2)C=C1 (stereo not drawn) [Example 4] | 25
COc1ccc(C2(c3ccccc3)C=Cc3c4c(c5ccc(OC)cc5c3O2)-c2ccccc2C4(O)c2cccc3ccccc23)cc1 (stereo not drawn) [Example 6] | 29
COc1ccc(C2(c3ccccc3)C=Cc3c4c(c5ccc(OC)cc5c3O2)-c2ccccc2C4(O)c2sccc2C)cc1 (stereo not drawn) [Example 9] | 38
COc1ccc(C2(c3ccccc3)C=Cc3c4c(c5ccc(OC)cc5c3O2)-c2ccccc2C4(O)c2cc(C)ccc2C)cc1 (stereo not drawn) [Example 8] | 36

(1) COc1ccc(C2(c3ccccc3)C=Cc3c4c(c5ccc(OC)cc5c3O2)-c2ccccc2C4(O)c2ccccc2C)cc1 (stereo not drawn) [Example 7]
(2) COc1ccc(C2(c3ccccc3)C=Cc3c4c(c5ccc(OC)cc5c3O2)-c2ccccc2C4(O)c2ccccc2)cc1 (stereo not drawn) [Example 5]
stdin: // compare: 1 vs 2 , metric Δ(10 min, 23° C.) relative brightening, want the smaller Provide the label of your selected option as the answer.
stdout: 2

* * *

# Assay Procedure: Brightening rate and brightening kinetics in the polymer Transhade-150
# Format: physicochemical
# Assay Setup: Table 3: R1 = OCH3, R2 = R3 = H, 40° C.
Endpoint Label: T1/2 (40° C.) (min)

COc1ccc(C2(c3ccccc3)C=Cc3c4c(c5ccc(OC)cc5c3O2)-c2ccccc2C4(O)c2ccccc2C)cc1 (stereo not drawn) | 4.2

(I) COc1ccc(C2(c3ccccc3)C=Cc3c4c(c5ccc(OC)cc5c3O2)-c2ccccc2C4(O)c2sccc2C)cc1 (stereo not drawn)
(II) COc1ccc(C2(c3ccccc3)C=Cc3c4c(c5ccc(OC)cc5c3O2)-c2ccccc2C4(O)c2cccc3ccccc23)cc1 (stereo not drawn)
stdin: In terms of reported T1/2 (40° C.), does I or II have the smaller number? Write down the label of the entry you select.
stdout: I
(I: 3.4 min, II: 5.0 min)

* * *

# Assay Procedure: Brightening rate and brightening kinetics in the polymer Transhade-150
# Format: physicochemical
# Assay Setup: Table 3: R1 = OCH3, R2 = R3 = H, 40° C.
Endpoint Label: T1/2 (40° C.) (min)

COc1ccc(C2(c3ccccc3)C=Cc3c4c(c5ccc(OC)cc5c3O2)-c2ccccc2C4(O)c2ccccc2)cc1 (stereo not drawn) | 7.0

(1) CCC1(O)c2ccccc2-c2c1c1c(c3cc(OC)ccc23)OC(c2ccccc2)(c2ccc(OC)cc2)C=C1 (stereo not drawn)
(2) COc1ccc(C2(c3ccccc3)C=Cc3c4c(c5ccc(OC)cc5c3O2)-c2ccccc2C4(O)c2cc(C)ccc2C)cc1 (stereo not drawn)
stdin: Larger number for T1/2 (40° C.): 1 , or 2 ? Response format: the label of the selected entry.
stdout: 1
(1: 7.0 min, 2: 4.0 min)

// data source = patent US6146554A
